Experiment: log P determination by HPLC on reverse-phase column (EEC Directive 79/831 Annex V.A8)
Type: physicochemical

[
  {
    "Compound": "CCNC(=O)c1cc(I)cc(C)c1NC(=O)c1cc(Cn2cc(C(F)(F)C(F)(F)F)c(C(F)(F)C(F)(F)F)n2)nn1-c1ncccc1Cl",
    "logP": 4.74
  },
  {
    "Compound": "Cc1cc(I)cc(C(=O)NC(C)C)c1NC(=O)c1cc(Cn2ccc(C(F)(F)F)n2)nn1-c1ncccc1Cl",
    "logP": 3.51
  },
  {
    "Compound": "N#CCNC(=O)c1cc(Cl)cc(Cl)c1NC(=O)c1cc(Cn2cc(Cl)c(C(F)(F)C(F)(F)F)n2)nn1-c1ncccc1Cl",
    "logP": 3.13
  },
  {
    "Compound": "N#CCNC(=O)c1cc(Cl)cc(Cl)c1NC(=O)c1cc(Cn2cc(C(F)(F)C(F)(F)F)c(C(F)(F)C(F)(F)F)n2)nn1-c1ncccc1Cl",
    "logP": 3.53
  },
  {
    "Compound": "Cc1cc(F)cc(C(=O)NC(C)CS(C)(=O)=O)c1NC(=O)c1cc(Cn2cc(Cl)c(C(F)(F)C(F)(F)F)n2)nn1-c1ncccc1Cl (stereo not drawn)",
    "logP": 3.34
  },
  {
    "Compound": "Cc1cc(F)cc(C(=O)NC(C)C)c1NC(=O)c1cc(Cn2ccc(C(F)(F)F)n2)nn1-c1ncccc1Cl",
    "logP": 3.00
  }
]

---

Assay: log P determination by HPLC on reverse-phase column (EEC Directive 79/831 Annex V.A8)
Type: physicochemical

[
  {
    "Compound Smiles": "CNC(=O)c1cc(Cl)cc(Cl)c1NC(=O)c1cc(Cc2cccnc2)nn1-c1ncccc1Cl",
    "logP": 1.03
  },
  {
    "Compound Smiles": "CNC(=O)c1cc(Cl)cc(C)c1NC(=O)c1cc(Cn2cnc(C(C)(C)C)n2)nn1-c1ncccc1Cl",
    "logP": 2.39
  },
  {
    "Compound Smiles": "NC(=O)c1cc(Cl)cc(Cl)c1NC(=O)c1cc(Cn2ccc(C(F)(F)F)n2)nn1-c1ncccc1Cl",
    "logP": 2.21
  },
  {
    "Compound Smiles": "N#CCNC(=O)c1cc(Cl)cc(Cl)c1NC(=O)c1cc(Cn2ccc(C(F)(F)F)n2)nn1-c1ncccc1Cl",
    "logP": 2.43
  }
]

---

Assay: log P determination by HPLC on reverse-phase column (EEC Directive 79/831 Annex V.A8)
Type: physicochemical
Details: HPLC on reverse-phase column
Protocol: The log P values stated in the foregoing tables and preparation examples are determined in accordance with EEC Directive 79/831 Annex V.A8 by means of HPLC (High Performance Liquid Chromatography) on a reverse-phase column (C 18). Temperature: 43° C. […] Calibration is with unbranched alkan-2-ones (having 3 to 16 carbon atoms) of known log P value (log P values determined from the retention times by linear interpolation between two successive alkanones).
Metric: logP

[
  {
    "Compound Smiles": "Cc1cc(Br)cc(C(=O)NC(C)C)c1NC(=O)c1cc(Cn2cc(Br)c(C(F)(F)F)n2)nn1-c1ncccc1Cl",
    "Metric": "logP",
    "Readout Number": 3.92
  },
  {
    "Compound Smiles": "CNC(=O)c1cc(Cl)cc(C)c1NC(=O)c1cc(Cn2cnc(C(F)(F)F)c2)nn1-c1ncccc1Cl",
    "Metric": "logP",
    "Readout Number": 2.39
  },
  {
    "Compound Smiles": "Cc1cc(Cl)cc(C(N)=O)c1NC(=O)c1cc(Cn2nc(C(F)(F)F)nc2C(F)(F)F)nn1-c1ncccc1Cl",
    "Metric": "logP",
    "Readout Number": 3.88
  },
  {
    "Compound Smiles": "CNC(=O)c1cc(Cl)cc(C)c1NC(=O)c1cc(Cn2nc(C(F)(F)C(F)(F)F)nc2C(F)(F)F)nn1-c1ncccc1Cl",
    "Metric": "logP",
    "Readout Number": 3.78
  },
  {
    "Compound Smiles": "Cc1cc(Cl)cc(C(=O)NC(C)C)c1NC(=O)c1cc(Cn2nc(C(F)(F)C(F)(F)F)c(C(F)(F)F)c2F)nn1-c1ncccc1Cl",
    "Metric": "logP",
    "Readout Number": 4.63
  },
  {
    "Compound Smiles": "Cc1cc(Br)cc(C(=O)NC(C)C)c1NC(=O)c1cc(Cn2ccc(C(F)(F)F)n2)nn1-c1ncccc1Cl",
    "Metric": "logP",
    "Readout Number": 3.46
  }
]
